Tested on: Phakopsora pachyrhizi
Experiment: Asian soybean rust, whole-plant fungicidal activity (PHAKPA)
Format: in vivo
Details: 72 h, 3DC (3 day curative), read-out: % Disease Control Rating PHAKPA
Procedure: Example C: Evaluation of Fungicidal Activity: Asian Soybean Rust (Phakopsora pachyrhizi; Bayer Code […]) Technical grades of materials were dissolved in acetone, which were then mixed with nine volumes of H2O containing 0.011% Tween-20. […] Fungicide formulation and application were made as described in Example A. When disease symptoms were fully expressed, disease severity was assessed on the sprayed leaves on a scale of 0 to 100 percent. […]
READOUT TYPE: pest or weed control at 200 ppm

- QUERY SMILES: "Cc1cc(C(=O)CC2CCCCC2)c(C)cc1/N=C/N1CCOCC1"
  READOUT TYPE: "pest or weed control at 200 ppm"
  MEASURED: "< 20%"
- QUERY SMILES: "CCN(C)/C=N/c1cc(C)c(C(=O)C2CCC2)cc1C(F)(F)F"
  READOUT TYPE: "pest or weed control at 200 ppm"
  MEASURED: "> 85%"
- QUERY SMILES: "CCN(C)/C=N/c1cc(C)c(C(=O)Cc2cccc(C(F)(F)F)c2F)cc1C"
  READOUT TYPE: "pest or weed control at 200 ppm"
  MEASURED: "> 85%"
- QUERY SMILES: "CCN(C)/C=N/c1cc(C)c(C(=O)Cc2ccccc2OC(F)(F)F)cc1C"
  READOUT TYPE: "pest or weed control at 200 ppm"
  MEASURED: "> 85%"
- QUERY SMILES: "CCN(C)/C=N/c1cc(C)c(C(=O)Cc2ccc(C)cc2F)cc1C"
  READOUT TYPE: "pest or weed control at 200 ppm"
  MEASURED: "> 85%"
- QUERY SMILES: "CCN(C)/C=N/c1cc(C)c(C(=O)CC2CCC2)cc1C"
  READOUT TYPE: "pest or weed control at 200 ppm"
  MEASURED: "> 85%"
